Tested on: Aspergillus niger ATCC 6275
Experiment: Minimum Inhibitory Concentration (MIC) in the agar incorporation test
Format: cell-based
Details: ATCC6275, 72 h, Table 2, MIC test, 3 days at 28° C., read-out: Further microbiological test results, Aspergillus niger ATCC 6275
measured-endpoint: MIC (µg/mL)

[[record]]
structure_smiles = "CCCCCN(CC#CC(=O)OC)c1ccccc1"
measured_endpoint = "MIC"
reading = 125

[[record]]
structure_smiles = "CCCCN(CC#CC(=O)OC)c1ccccc1"
measured_endpoint = "MIC"
reading = 63


a: CCOC(=O)C#CCNc1ccccc1
b: CCN(CC#CC(=O)OC)c1cccc(C)c1
Sorting ascending by MIC, which comes first: a or b ? State the label of the item chosen. b

* * *

Tested on: Aspergillus niger ATCC 6275
Assay: Minimum Inhibitory Concentration (MIC) in the agar incorporation test
Assay type: cell-based
Conditions: ATCC6275, 72 h, Table 2, MIC test, 3 days at 28° C., read-out: Further microbiological test results, Aspergillus niger ATCC 6275
measured-endpoint: MIC (µg/mL)

Take a look at these entries with their results.
[[record]]
structure_smiles = "COC(=O)C#CCNc1ccc(C)cc1"
measurement_target = "Aspergillus niger ATCC 6275"
reading = 125

[[record]]
structure_smiles = "CCCN(CC#CC(=O)OC)c1cccc(C)c1"
measurement_target = "Aspergillus niger ATCC 6275"
reading = 125


1: CCN(CC#CC(=O)OC)c1ccc(OC)cc1
2: CCCN(CC#CC(=O)OC)c1cccc(OC)c1
3: CCOC(=O)C#CCNc1ccc(OC)cc1
Ascending by MIC, please: list the compounds accordingly. Record the ranking as a list of labels in the requested order. 1, 2, 3
(1: 60 µg/mL, 2: 125 µg/mL, 3: 500 µg/mL)
